Experiment: solvent given as SMILES
Settings: in ClC(Cl)Cl
Would you mind sorting the entries by emission maximum according to these classes? b0 (below 500 nm), b1 (500 nm to below 600 nm), b2 (600 nm or more)

For orientation, consider the following solved cases.
COc1ccc(-c2ccc(-c3ccc(C#N)s3)s2)cc1    b0
CCCCN1c2ccccc2Sc2cc(/C=C\c3cc(=O)oc4cc(C)ccc34)ccc21    b2
CC1=[N+]2C(=c3c4c5ccccc5cc5cccc(c6cc(C)n(c36)[B-]2(F)F)c54)C=C1    b2
CCCCN1C(=O)c2cc(Br)c3c4c(Br)c(Br)c5c6c(cc(Br)c(c7c(Br)c(Br)c(c2c37)C1=O)c64)C(=O)N(CCCC)C5=O    b1

Place this compound in its band: "N#CC1=CC(c2ccccc2)=CC(C#N)=P1(c1ccccc1)c1ccccc1" b1

Place this compound in its band: "CCC1=C(C)C(=O)n2c1cc1c(c(C)c(C(=O)OC)n1C)c2=O" b0

###

Test: solvent given as SMILES
Settings: in Cc1ccccc1
valueType: emission maximum (nm)
Provide only the numeric value, understood in nm.

Cc1cc(-n2c3ccccc3c3cc4c(cc32)C2c3ccccc3C4c3ccccc32)c(C)cc1-c1nc(-c2ccccc2)nc(-c2ccccc2)n1    427
CCCCN(CCCC)c1ccc(/C=C/c2ccc3c(c2)CCc2cc(/C=C/c4ccc(N(CCCC)CCCC)cc4)ccc2-3)cc1    456.4
CCn1c2ccccc2c2cc(-c3cc(-c4ccc5c(c4)c4ccccc4n5CC)nc(-c4ccc(OC)cc4)n3)ccc21    379
CCOC(=O)c1cc2ccc3ccccc3c2c(C#N)c1N    461
Cc1cc(-c2nnc(-c3ccccc3)o2)ccc1-n1c2ccccc2c2ccccc21    382

Recorded emission maximum of "CC(C)(C)c1ccccc1N(c1ccccc1)c1ccc(S(=O)(=O)c2ccc(S(=O)(=O)c3ccc(N(c4ccccc4)c4ccccc4C(C)(C)C)cc3)cc2)cc1" , please. 444

Recorded emission maximum of "CN(c1ccccc1)c1ccc(/C=C2\C(=O)c3ccccc3S2(=O)=O)cc1" , please. 576

Recorded emission maximum of "CC(C)[Si](C#Cc1ccc(-c2c3cccc4c5cccc6c(-c7ccc(C#C[Si](C(C)C)(C(C)C)C(C)C)cc7)c7cccc8c9cccc2c9c(c34)c(c65)c78)cc1)(C(C)C)C(C)C" , please. 744

Recorded emission maximum of "O=S(=O)(c1ccc(-c2ccc3c(c2)c2ccccc2n3-c2ccccc2)cc1)c1ccc(-c2ccc3c(c2)c2ccccc2n3-c2ccccc2)cc1" , please. 381

Recorded emission maximum of "Cc1cc(C(F)(F)F)nc2c1ccc1nc(-c3ccc(Cl)cc3)cn12" , please. 455

Recorded emission maximum of "CCCCCCCC(=O)Oc1ccc2c3cccc4c(OC(=O)CCCCCCC)ccc(c5cccc1c52)c43" , please. 456.99

Recorded emission maximum of "CCN(CC)c1ccc2cc(/C=C/C(=C(C#N)C#N)c3ccc(N(c4ccccc4)c4ccccc4)cc3)c(=O)oc2c1" , please. 576

###

Overview of recorded emission maximum for various molecules
Test: solvent given as SMILES
Conditions: in CCCCCC
Provide only the numeric value, understood in nm.

Known emission maximum results, listed for orientation:
CCc1c(C)c2n(c1C)[B-](F)(F)[N+]1=C(c3ccc[nH]3)c3ccccc3C1=C2C    622
[C-]#[N+]c1ccc(-c2ccc(NC)cc2)cc1    366
F[B-]1(F)n2cccc2C(c2c3ccccc3cc3ccccc23)=C2C=CC=[N+]21    521
COc1cc(OC)cc(C2=[O+][B-](F)(F)OC(c3ccc4ccccc4c3)=C2)c1    418.89

Consider the record given below.
Recorded emission maximum of "c1ccc(-c2nc(-c3ccccc3)nc(-c3ccc(-n4c5ccccc5c5cc6c(cc54)C(c4ccccc4)(c4ccccc4)c4ccccc4-6)cc3)n2)cc1" , please. 400.55
